particulars: in methanol, 283.15 K

[
  {
    "chemical.smiles": "NC(=O)N/N=C/c1ccc([N+](=O)[O-])o1",
    "solubility (mole fraction)": 0.000168
  }
]

---

particulars: in water, 278.15 K
measure.name: solubility (mole fraction)

[
  {
    "chemical.smiles": "NC(=O)N/N=C/c1ccc([N+](=O)[O-])o1",
    "recorded.measurement": "4.23e-06"
  }
]

---

particulars: in methanol, 293.15 K

[
  {
    "chemical.smiles": "NC(=O)N/N=C/c1ccc([N+](=O)[O-])o1",
    "solubility (mole fraction)": 0.000238
  }
]

---

particulars: in formamide, 303.15 K

[
  {
    "chemical.smiles": "NC(=O)N/N=C/c1ccc([N+](=O)[O-])o1",
    "solubility (mole fraction)": 0.00273
  }
]

---

particulars: in isopropanol, 288.15 K

[
  {
    "chemical.smiles": "NC(=O)N/N=C/c1ccc([N+](=O)[O-])o1",
    "solubility (mole fraction)": "4.03e-05"
  }
]

---

particulars: in formamide, 283.15 K
measure.name: solubility (mole fraction)

[
  {
    "chemical.smiles": "NC(=O)N/N=C/c1ccc([N+](=O)[O-])o1",
    "measure.name": "solubility (mole fraction)",
    "recorded.measurement": 0.00154
  }
]

---

particulars: in isopropanol, 313.15 K
measure.name: solubility (mole fraction)

[
  {
    "chemical.smiles": "NC(=O)N/N=C/c1ccc([N+](=O)[O-])o1",
    "recorded.measurement": 0.000151
  }
]

---

particulars: in ethanol, 278.15 K

[
  {
    "chemical.smiles": "NC(=O)N/N=C/c1ccc([N+](=O)[O-])o1",
    "solubility (mole fraction)": "5.89e-05"
  }
]

---

particulars: in acetone, 288.15 K
measure.name: solubility (mole fraction)

[
  {
    "chemical.smiles": "NC(=O)N/N=C/c1ccc([N+](=O)[O-])o1",
    "measure.name": "solubility (mole fraction)",
    "recorded.measurement": 0.00038
  }
]

---

particulars: in n-propanol, 293.15 K

[
  {
    "chemical.smiles": "NC(=O)N/N=C/c1ccc([N+](=O)[O-])o1",
    "solubility (mole fraction)": "6.62e-05"
  }
]

---

particulars: in water, 283.15 K

[
  {
    "chemical.smiles": "NC(=O)N/N=C/c1ccc([N+](=O)[O-])o1",
    "solubility (mole fraction)": "5.75e-06"
  }
]

---

particulars: in n-propanol, 303.15 K
measure.name: solubility (mole fraction)

[
  {
    "chemical.smiles": "NC(=O)N/N=C/c1ccc([N+](=O)[O-])o1",
    "recorded.measurement": 0.000108
  }
]

---

particulars: in DMF, 288.15 K
measure.name: solubility (mole fraction)

[
  {
    "chemical.smiles": "NC(=O)N/N=C/c1ccc([N+](=O)[O-])o1",
    "measure.name": "solubility (mole fraction)",
    "recorded.measurement": 0.0207
  }
]

---

particulars: in n-propanol, 288.15 K

[
  {
    "chemical.smiles": "NC(=O)N/N=C/c1ccc([N+](=O)[O-])o1",
    "solubility (mole fraction)": "5.29e-05"
  }
]

---

particulars: in ethyl acetate, 293.15 K

[
  {
    "chemical.smiles": "NC(=O)N/N=C/c1ccc([N+](=O)[O-])o1",
    "solubility (mole fraction)": 0.000116
  }
]

---

particulars: in acetone, 293.15 K

[
  {
    "chemical.smiles": "NC(=O)N/N=C/c1ccc([N+](=O)[O-])o1",
    "solubility (mole fraction)": 0.000435
  }
]

---

particulars: in ethanol, 288.15 K

[
  {
    "chemical.smiles": "NC(=O)N/N=C/c1ccc([N+](=O)[O-])o1",
    "solubility (mole fraction)": "8.98e-05"
  }
]

---

particulars: in acetonitrile, 303.15 K
measure.name: solubility (mole fraction)

[
  {
    "chemical.smiles": "NC(=O)N/N=C/c1ccc([N+](=O)[O-])o1",
    "measure.name": "solubility (mole fraction)",
    "recorded.measurement": 0.000204
  }
]

---

particulars: in ethyl acetate, 278.15 K

[
  {
    "chemical.smiles": "NC(=O)N/N=C/c1ccc([N+](=O)[O-])o1",
    "solubility (mole fraction)": "7.69e-05"
  }
]

---

particulars: in acetonitrile, 313.15 K

[
  {
    "chemical.smiles": "NC(=O)N/N=C/c1ccc([N+](=O)[O-])o1",
    "solubility (mole fraction)": 0.000293
  }
]

---

particulars: in n-propanol, 308.15 K
measure.name: solubility (mole fraction)

[
  {
    "chemical.smiles": "NC(=O)N/N=C/c1ccc([N+](=O)[O-])o1",
    "measure.name": "solubility (mole fraction)",
    "recorded.measurement": 0.000139
  }
]

---

particulars: in n-propanol, 278.15 K
measure.name: solubility (mole fraction)

[
  {
    "chemical.smiles": "NC(=O)N/N=C/c1ccc([N+](=O)[O-])o1",
    "recorded.measurement": "3.6e-05"
  }
]

---

particulars: in acetone, 278.15 K
measure.name: solubility (mole fraction)

[
  {
    "chemical.smiles": "NC(=O)N/N=C/c1ccc([N+](=O)[O-])o1",
    "measure.name": "solubility (mole fraction)",
    "recorded.measurement": 0.000291
  }
]

---

particulars: in formamide, 293.15 K

[
  {
    "chemical.smiles": "NC(=O)N/N=C/c1ccc([N+](=O)[O-])o1",
    "solubility (mole fraction)": 0.00205
  }
]

---

particulars: in acetone, 313.15 K

[
  {
    "chemical.smiles": "NC(=O)N/N=C/c1ccc([N+](=O)[O-])o1",
    "solubility (mole fraction)": 0.000749
  }
]

---

particulars: in DMF, 303.15 K

[
  {
    "chemical.smiles": "NC(=O)N/N=C/c1ccc([N+](=O)[O-])o1",
    "solubility (mole fraction)": 0.0255
  }
]

---

particulars: in ethanol, 313.15 K

[
  {
    "chemical.smiles": "NC(=O)N/N=C/c1ccc([N+](=O)[O-])o1",
    "solubility (mole fraction)": 0.000247
  }
]

---

particulars: in acetone, 308.15 K

[
  {
    "chemical.smiles": "NC(=O)N/N=C/c1ccc([N+](=O)[O-])o1",
    "solubility (mole fraction)": 0.000641
  }
]

---

particulars: in acetonitrile, 278.15 K

[
  {
    "chemical.smiles": "NC(=O)N/N=C/c1ccc([N+](=O)[O-])o1",
    "solubility (mole fraction)": "7.32e-05"
  }
]

---

particulars: in ethyl acetate, 298.15 K
measure.name: solubility (mole fraction)

[
  {
    "chemical.smiles": "NC(=O)N/N=C/c1ccc([N+](=O)[O-])o1",
    "measure.name": "solubility (mole fraction)",
    "recorded.measurement": 0.00013
  }
]

---

particulars: in DMF, 293.15 K

[
  {
    "chemical.smiles": "NC(=O)N/N=C/c1ccc([N+](=O)[O-])o1",
    "solubility (mole fraction)": 0.0223
  }
]

---

particulars: in water, 313.15 K
measure.name: solubility (mole fraction)

[
  {
    "chemical.smiles": "NC(=O)N/N=C/c1ccc([N+](=O)[O-])o1",
    "recorded.measurement": "2.68e-05"
  }
]

---

particulars: in ethyl acetate, 288.15 K
measure.name: solubility (mole fraction)

[
  {
    "chemical.smiles": "NC(=O)N/N=C/c1ccc([N+](=O)[O-])o1",
    "measure.name": "solubility (mole fraction)",
    "recorded.measurement": "9.59e-05"
  }
]

---

particulars: in DMF, 283.15 K
measure.name: solubility (mole fraction)

[
  {
    "chemical.smiles": "NC(=O)N/N=C/c1ccc([N+](=O)[O-])o1",
    "recorded.measurement": 0.0202
  }
]

---

particulars: in ethanol, 298.15 K
measure.name: solubility (mole fraction)

[
  {
    "chemical.smiles": "NC(=O)N/N=C/c1ccc([N+](=O)[O-])o1",
    "measure.name": "solubility (mole fraction)",
    "recorded.measurement": 0.000136
  }
]

---

particulars: in formamide, 288.15 K
measure.name: solubility (mole fraction)

[
  {
    "chemical.smiles": "NC(=O)N/N=C/c1ccc([N+](=O)[O-])o1",
    "recorded.measurement": 0.00178
  }
]

---

particulars: in DMF, 313.15 K
measure.name: solubility (mole fraction)

[
  {
    "chemical.smiles": "NC(=O)N/N=C/c1ccc([N+](=O)[O-])o1",
    "measure.name": "solubility (mole fraction)",
    "recorded.measurement": 0.0279
  }
]
